# IC50 values compiled below
- Test system: T-47D cells
- Experimental Details: CCK-8 cytotoxicity assay, T-47D
- Type: cell-based
- Experimental Context: Homo sapiens, T47D; CCK-8, 72 h incubation, three independent experiments; read-out: In vitro cell growth inhibition IC50, T-47D

- Molecule: "CN(C)C(=O)c1cc2cnc(Nc3ccc(CS(=O)(=O)CCCN=C=S)cc3)nc2n1C1CCCC1 [X19]"
  IC50: "720 nM"
- Molecule: "CN(C)C(=O)c1cc2cnc(Nc3ccc(SCCCN=C=S)cc3)nc2n1C1CCCC1 [X8]"
  IC50: "410 nM"
- Molecule: "CN(C)C(=O)c1cc2cnc(Nc3ccc([S+]([O-])CCCCCN=C=S)cc3)nc2n1C1CCCC1 (stereo not shown) [X7]"
  IC50: "100 nM"
- Molecule: "CN(C)C(=O)c1cc2cnc(Nc3ccc(S(=O)(=O)CCCCCCN=C=S)cc3)nc2n1C1CCCC1 [X12]"
  IC50: "160 nM"
- Molecule: "CN(C)C(=O)c1cc2cnc(Nc3ccc(N4CCNCC4)cn3)nc2n1C1CCCC1 [Ribociclib, ribociclib, reference compound]"
  IC50: "6230 nM"
- Molecule: "CN(C)C(=O)c1cc2cnc(Nc3ccc(CS(=O)(=O)CCCCCCN=C=S)cc3)nc2n1C1CCCC1 [X22]"
  IC50: "110 nM"
- Molecule: "CN(C)C(=O)c1cc2cnc(Nc3ccc(CS(=O)(=O)CCCCN=C=S)cc3)nc2n1C1CCCC1 [X20]"
  IC50: "120 nM"

###

- Target Or Test System: CDK6 (Homo sapiens, UniProt Q00534)
- Construct: purchased Eurofins (KinaseProfiler service)
- Sequence (Q00534 whole entry): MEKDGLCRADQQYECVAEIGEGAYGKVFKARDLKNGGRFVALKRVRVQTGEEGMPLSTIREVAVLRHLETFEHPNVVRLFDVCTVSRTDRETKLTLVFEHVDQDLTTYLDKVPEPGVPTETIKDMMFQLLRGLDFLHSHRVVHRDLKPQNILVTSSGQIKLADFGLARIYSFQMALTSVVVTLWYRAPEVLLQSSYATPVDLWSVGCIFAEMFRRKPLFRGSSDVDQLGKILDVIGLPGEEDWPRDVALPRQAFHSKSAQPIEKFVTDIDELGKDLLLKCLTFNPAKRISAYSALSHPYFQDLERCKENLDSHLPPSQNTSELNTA
- Sequence (P30281 whole entry partner): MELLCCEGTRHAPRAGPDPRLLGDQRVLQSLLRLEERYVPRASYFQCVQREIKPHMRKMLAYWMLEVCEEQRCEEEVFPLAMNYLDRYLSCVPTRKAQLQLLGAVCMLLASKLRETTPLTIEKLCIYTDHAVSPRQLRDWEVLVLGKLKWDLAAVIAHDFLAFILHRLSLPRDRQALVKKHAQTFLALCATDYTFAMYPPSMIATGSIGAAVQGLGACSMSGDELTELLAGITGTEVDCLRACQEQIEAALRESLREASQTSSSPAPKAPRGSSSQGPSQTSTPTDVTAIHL
- Experimental Details: Kinase inhibition assay (KinaseProfiler, Eurofins), CDK6
- Type: biochemical
Reported Property: inhibition at 1 µM (%)

- Record Smiles: "COc1cc(SCCCCCN=C=S)ccc1Nc1ncc2cc(C(=O)N(C)C)n(C3CCCC3)c2n1"
  Target Or Test System: "CDK6 (Homo sapiens, UniProt Q00534)"
  Value Observed: 5
- Record Smiles: "CN(C)C(=O)c1cc2cnc(Nc3ccc(S(=O)(=O)CCCCCCCN=C=S)cc3)nc2n1C1CCCC1"
  Target Or Test System: "CDK6 (Homo sapiens, UniProt Q00534)"
  Value Observed: 68
- Record Smiles: "CN(C)C(=O)c1cc2cnc(Nc3ccc(SCCCCCN=C=S)cc3)nc2n1C1CCCC1"
  Target Or Test System: "CDK6 (Homo sapiens, UniProt Q00534)"
  Value Observed: 63
- Record Smiles: "CN(C)C(=O)c1cc2cnc(Nc3ccc(CS(=O)(=O)CCCCN=C=S)cc3)nc2n1C1CCCC1"
  Target Or Test System: "CDK6 (Homo sapiens, UniProt Q00534)"
  Value Observed: 94

###

- Target Or Test System: CDK6 (Homo sapiens, UniProt Q00534)
- Construct: purchased Eurofins (KinaseProfiler service)
- Experimental Details: Kinase inhibition assay (KinaseProfiler, Eurofins), CDK6
- Type: biochemical
# inhibition at 1 µM values compiled below

- Compound: "CN(C)C(=O)c1cc2cnc(Nc3ccc([S+]([O-])CCCCCN=C=S)cc3)nc2n1C1CCCC1 (centres unmarked) [X7]"
  inhibition at 1 µM: "87%"
- Compound: "CN(C)C(=O)c1cc2cnc(Nc3ccc([S+]([O-])CCCCCN=C=S)cc3C(F)(F)F)nc2n1C1CCCC1 (centres unmarked) [X5]"
  inhibition at 1 µM: "48%"
- Compound: "CN(C)C(=O)c1cc2cnc(Nc3ccc(SCCCCCN=C=S)cc3C(F)(F)F)nc2n1C1CCCC1 [X4]"
  inhibition at 1 µM: "8%"
- Compound: "CN(C)C(=O)c1cc2cnc(Nc3ccc(CSCCCCCN=C=S)cc3)nc2n1C1CCCC1 [X16]"
  inhibition at 1 µM: "73%"
- Compound: "CN(C)C(=O)c1cc2cnc(Nc3ccc(CS(=O)(=O)CCCN=C=S)cc3)nc2n1C1CCCC1 [X19]"
  inhibition at 1 µM: "94%"
- Compound: "Cc1cc(SCCCCCN=C=S)ccc1Nc1ncc2cc(C(=O)N(C)C)n(C3CCCC3)c2n1 [X2]"
  inhibition at 1 µM: "17%"
- Compound: "CN(C)C(=O)c1cc2cnc(Nc3ccc(CS(=O)(=O)CCCCCCN=C=S)cc3)nc2n1C1CCCC1 [X22]"
  inhibition at 1 µM: "91%"
- Compound: "CN(C)C(=O)c1cc2cnc(Nc3ccc(S(=O)(=O)CCCCCCN=C=S)cc3)nc2n1C1CCCC1 [X12]"
  inhibition at 1 µM: "75%"
